# Protocol details: LC-MS/MS Method 1
# Format: in vivo, rat
# Condition: rat, urine, oral, 5 mg/kg, Conc sulfone, LOQ 1.5 ng/mL, rat urine; fipronil 5 mg/kg repeated; Method 1
Recorded metric: concentration at 2 weeks (ng/mL)
Please state the figure in ng/mL; there is no need to write the unit.

Query: In one line, give reported concentration at 2 weeks of the entry N#Cc1nn(-c2c(Cl)cc(C(F)(F)F)cc2Cl)c(N)c1S(=O)(=O)C(F)(F)F [fipronil sulfone] .
Reply: 17

----------
# Assay target: α1β3γ2L GABAA receptors (Homo sapiens, UniProt P14867+P18507+P28472)
# Sequence (P14867 28-456): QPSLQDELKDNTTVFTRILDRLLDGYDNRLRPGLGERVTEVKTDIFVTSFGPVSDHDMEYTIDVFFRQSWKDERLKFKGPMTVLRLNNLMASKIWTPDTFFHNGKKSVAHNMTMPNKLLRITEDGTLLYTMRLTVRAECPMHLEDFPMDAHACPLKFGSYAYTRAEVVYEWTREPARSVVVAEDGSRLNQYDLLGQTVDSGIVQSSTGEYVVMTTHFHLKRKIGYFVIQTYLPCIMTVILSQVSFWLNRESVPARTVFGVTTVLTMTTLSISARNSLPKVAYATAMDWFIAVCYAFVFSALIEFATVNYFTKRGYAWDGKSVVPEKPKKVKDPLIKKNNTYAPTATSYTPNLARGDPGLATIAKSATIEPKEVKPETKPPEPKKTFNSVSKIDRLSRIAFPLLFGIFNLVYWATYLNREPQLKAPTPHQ
# Sequence (P28472 26-473): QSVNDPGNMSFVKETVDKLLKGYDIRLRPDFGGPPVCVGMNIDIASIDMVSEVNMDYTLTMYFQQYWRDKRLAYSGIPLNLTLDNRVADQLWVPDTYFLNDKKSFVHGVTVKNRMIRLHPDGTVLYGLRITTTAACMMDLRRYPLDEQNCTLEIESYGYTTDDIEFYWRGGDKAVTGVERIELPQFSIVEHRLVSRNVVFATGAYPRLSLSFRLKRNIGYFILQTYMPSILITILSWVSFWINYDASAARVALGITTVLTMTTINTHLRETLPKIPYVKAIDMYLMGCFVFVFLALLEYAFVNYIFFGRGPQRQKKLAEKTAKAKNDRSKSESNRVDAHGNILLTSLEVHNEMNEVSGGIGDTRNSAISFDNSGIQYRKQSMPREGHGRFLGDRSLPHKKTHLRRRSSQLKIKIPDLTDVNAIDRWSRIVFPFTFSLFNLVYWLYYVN
# Sequence (P18507 40-475): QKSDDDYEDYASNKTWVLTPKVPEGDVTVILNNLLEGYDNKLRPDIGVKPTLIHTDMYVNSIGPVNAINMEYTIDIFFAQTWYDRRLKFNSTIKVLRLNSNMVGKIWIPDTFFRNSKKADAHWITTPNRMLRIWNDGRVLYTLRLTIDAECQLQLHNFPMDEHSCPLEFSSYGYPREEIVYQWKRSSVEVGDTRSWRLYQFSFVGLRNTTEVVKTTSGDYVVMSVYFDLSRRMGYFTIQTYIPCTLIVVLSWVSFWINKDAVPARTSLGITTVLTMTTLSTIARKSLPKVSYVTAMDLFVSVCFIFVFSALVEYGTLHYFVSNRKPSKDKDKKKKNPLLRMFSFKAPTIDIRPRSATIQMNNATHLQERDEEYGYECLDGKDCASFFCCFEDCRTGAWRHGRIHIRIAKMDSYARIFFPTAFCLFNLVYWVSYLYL
# Type: cell-based
# Condition: inhibitory effective concentration (EC50) on GABA-induced Cl- currents, 25 μM GABA, -80 mV, pre-application at least 3 min; mean ± S.D.
Recorded metric: pEC50
API: returns pEC50 as number; meaning -log10 of concentration in mol/L.

Query: In one line, give reported pEC50 of the entry N#Cc1nn(-c2c(Cl)cc(C(F)(F)F)cc2Cl)c(N)c1O [hydroxy-fipronil] .
Reply: 6.00

Where do the numbers come from? From paper PMC5432128.
